These entries and their values trace back to patent US20220387457A1.

Experiment: Toxicokinetics after escalating intravenous doses of CKLP1 in beagles
Assay type: in vivo, beagle dog
Conditions: female, beagle, dog, in vivo, iv, 0.5 mg/kg
RECORDED METRIC: Cmax (ng/mL)
Respond numerically; units are ng/mL and should not be typed.

[ask] Fill in the blank: the reported Cmax of `CC1(C)Oc2ccc(C#N)cc2[C@@H](N2CCCC2=O)[C@@H]1OP(=O)(O)O` is ____.
[reply] 2990

----------
Assay: Plasma pharmacokinetics, 28-day topical ophthalmic dosing in beagle dogs
Details: female, beagle, dog, in vivo, topical or ocular, 0.27 mg/kg
RECORDED METRIC: Tmax

[ask] Fill in: Tmax of CC1(C)Oc2ccc(C#N)cc2[C@@H](N2CCCC2=O)[C@@H]1OP(=O)(O)O [CKLP1] is ___
[reply] 2 h

----------
Assay: Plasma pharmacokinetics of CKLP1 and levcromakalim after topical dosing in hound dogs
Assay type: in vivo, hound dog
Details: CKLP1; topical 10 mM CKLP1 once daily; Day 4
RECORDED METRIC: Tlast (min)
Number in min, nothing else.

[ask] Need Tlast, item CC1(C)Oc2ccc(C#N)cc2[C@@H](N2CCCC2=O)[C@@H]1OP(=O)(O)O [CKLP1]
[reply] 1440

----------
Assay: Plasma pharmacokinetics of CKLP1 and levcromakalim after topical dosing in hound dogs
Type: in vivo, hound dog
Details: hound, dog, plasma, topical or ocular, 10 mM CKLP1, 50 µL in each of both eyes, CKLP1; topical 10 mM CKLP1 once daily; Day 4
RECORDED METRIC: AUC(0-t) (ng·h/mL)
Write down the numeric answer in ng·h/mL and omit the unit.

[ask] Query: AUC(0-t); subject: `CC1(C)Oc2ccc(C#N)cc2[C@@H](N2CCCC2=O)[C@@H]1OP(=O)(O)O`
[reply] 103

----------
Assay: Concentration of CKLP1 and levcromakalim in ocular and systemic tissues of hound dogs
Assay type: in vivo, hound dog
Details: hound, dog, ciliary body; 23 hours after last dose; topical 10 mM CKLP1 12-13 days; two animals; read-out: concentration in ciliary body
RECORDED METRIC: concentration at 23 h (ng/g)
API: value field is a number in ng/g; no unit string.

[ask] What does the data say about its concentration at 23 h? Entry: `CC1(C)Oc2ccc(C#N)cc2[C@@H](N2CCCC2=O)[C@@H]1OP(=O)(O)O`
[reply] 10.3

----------
Assay: Plasma pharmacokinetics, 28-day topical ophthalmic dosing in beagle dogs
Conditions: male, beagle, dog, in vivo, topical or ocular, 0.81 mg/kg, CKLP1; Male; topical 8.0% CKLP1 daily; Day 28; read-out: Cmax
RECORDED METRIC: Cmax
Form entry: enter the amount, then its unit.

[ask] Requested field: Cmax. Item: CC1(C)Oc2ccc(C#N)cc2[C@@H](N2CCCC2=O)[C@@H]1OP(=O)(O)O [CKLP1]
[reply] 147 ng/mL

----------
Assay: Toxicokinetics after escalating intravenous doses of CKLP1 in beagles
Assay type: in vivo, beagle dog
Conditions: female, beagle, dog, in vivo, iv, 0.5 mg/kg
RECORDED METRIC: clearance (mL/min/kg)
Only the number, expressed in mL/min/kg, is required.

[ask] Bench note: what clearance did CC1(C)Oc2ccc(C#N)cc2[C@@H](N2CCCC2=O)[C@@H]1OP(=O)(O)O [CKLP1] show?
[reply] 0.392

----------
Assay: Plasma pharmacokinetics, 28-day topical ophthalmic dosing in beagle dogs
Conditions: male, beagle, dog, in vivo, topical or ocular, 0.2 mg/kg
Protocol: In the study, dogs (3 males and 3 females) received bilateral daily topical administration of 40 μL/eye of 2.0%, 4.0%, or 8.0% as measured in mg/mL (equivalent to 0.8, 1.6, or 3.2 mg CKLP1 per eye) of CKLP1 in phosphate buffered saline. […]
RECORDED METRIC: AUC(0-inf) (ng·h/mL)
I only need the number, in ng·h/mL, no unit after it.

[ask] Give its AUC(0-inf) value. Item: `CC1(C)Oc2ccc(C#N)cc2[C@@H](N2CCCC2=O)[C@@H]1OP(=O)(O)O`
[reply] 299
